Tested on: SNB-78
Assay: NCI tumour cell line growth inhibition, 48 h
Active and inactive are the calls of the source. Rule as the data show it: active = GI50 up to about 1.1 µM and inactive = higher. Numbered stars: 1 amine (or outer) side, 2 acyl side, 3 side chain; on linkers, the order of the positions; unused ones are H or OH. Square brackets hold non-standard residues; d marks the D form. Peptide text beside a SMILES is read from it. X55 = CC[C@H](C)[C@H](OC(=O)[C@@H](C)[C@@H](CC)N[*:1])C(=O)[*:2]; X31 = C[C@H](N[*:1])C(=O)C(C)(C)C(=O)[*:2]; NMeY = CN[C@@H](Cc1ccc(O)cc1)C(=O)O; NMeL = CN[C@@H](CC(C)C)C(=O)O; NMeV = CN[C@H](C(=O)O)C(C)C
Your reply should match one of these outcome classes. active, inactive

INPUT: Any idea what this test logged for CC[C@H](C)[C@@H]1OC(=O)[C@@H](C)[C@@H](CC)NC(=O)[C@H](C)NC(=O)C(C)(C)C(=O)[C@H](C)NC(=O)[C@H](Cc2ccc(OC)cc2)N(C)C(=O)[C@H](C(C)C)N(C)C(=O)CNC(=O)[C@H](CC(C)C)N(C)C(=O)CNC1=O [DOLASTATIN 11] (cyclo(A[X55]G[NMeL]G[NMeV][NMeY](Me)[X31])) ?
OUTPUT: active

INPUT: Assay result, entry `Cn1cc(NC(=O)c2cc(NC(=O)CCCCCCCCCC(=O)Nc3cc(C(=O)Nc4cc(C(=O)NCCC(=N)N)n(C)c4)n(C)c3)cn2C)cc1C(=O)NCCC(=N)N` — outcome?
OUTPUT: inactive

INPUT: Tell me the assay call for CCC1(O)CC(OC2CC(N(C)C)C(OC3CC4OC5CC(=O)C(C)OC5OC4C(C)O3)C(C)O2)c2c(cc3c(c2O)C(=O)c2c(O)ccc(O)c2C3=O)C1C(=O)OC (centres undefined) please.
OUTPUT: active

INPUT: Would you mind telling me which call this test gave CC(C)(C)N/N=N/c1cn(C2OC(CO)C(O)C2O)c(=O)[nH]c1=O (centres undefined) ?
OUTPUT: inactive

----------
Tested on: NCI-H522
Test: NCI tumour cell line growth inhibition, 48 h
The source made the active and inactive calls. Cut-off read from the data, not from the text of the source: active = GI50 up to about 1.1 µM and inactive = higher. Peptide text beside a SMILES is read from it. * marks the point of attachment. Cbz = O=C(OCc1ccccc1)*; OBn = c1ccc(CO*)cc1
Give measured GI50 for each item. Keep answers brief.

// GI50 lookup, compound = `NC1=C(N2CCOCC2)C(=O)NC2=N/C(=C\c3ccccc3O)C(=O)N21` , result: 76.2 µM (inactive)

Record O=C1C(O)=C(CCCCCCCCC2CCCCC2)C(=O)c2ccccc21 [MENOCTONE] , field GI50: 6.24 µM (inactive)

Lookup result for `CCN(Cc1cc(Cl)cc(C)c1O)Cc1c(O)ccc2ccccc12` ; measured GI50: 11.2 µM (inactive)

Noted for CCCCCCC(C)c1ccc2c(c1)C(=O)c1nc3ccncc3c(=O)n1-2 (configuration not stated) : its GI50 reads 1.29 µM (inactive)

Recorded GI50 (compound `CC(=O)OCCn1c(Cc2ccc(Cl)cc2)nn(C(C)=O)c1=O` ): > 100 µM (inactive)

Field GI50 (entry CC1C=C(NCC2(CO)CCC2)N=C(N)N1 (configuration not stated) ) reads > 100 µM (inactive)

Value of measured GI50 for the entry `CC(=O)CC(N)=O` : > 100 µM (inactive)

The compound listed as `Cc1c2cc[n+](C)cc2c(C)c2c1[nH]c1ccc(OCC(F)(F)F)cc12` shows GI50 equal to 1.63 µM (inactive)

Sample `C#Cc1cc(Br)c(OC(=O)C(C)(C)C)c(-c2cc(C#C)cc(Br)c2OC(=O)C(C)(C)C)c1` ; GI50 observed: 32.5 µM (inactive)

# compound `N#CCC(=O)c1cc(OCc2cc(OCc3ccc(Br)cc3)cc(OCc3ccc(Br)cc3)c2)cc(OCc2cc(OCc3ccc(Br)cc3)cc(OCc3ccc(Br)cc3)c2)c1` ; its GI50 = > 100 µM (inactive)

Notebook: CC1=C([S+]([O-])c2ccc(C)cc2)CCC2(CCCCO2)O1 (configuration not stated) , GI50 read as > 100 µM (inactive)

Sure, the documented GI50 for `Cc1cc(N)ccc1C=O` is > 100 µM (inactive)

get_value(item= `CC(C)(c1cn(Cc2ccccc2)c2ccccc12)c1cn(Cc2ccccc2)c2ccccc12` , readout=GI50) returns 76.9 µM (inactive)

Field GI50 (entry `CCOC(=O)C(=O)/C(=C\NC(=S)Nc1ccccc1Cl)C(=O)OCC` ) reads > 100 µM (inactive)

The reported GI50 of the compound `Cn1c(=O)c2ccccc2c2ccccc21` was 36.6 µM (inactive)

# compound COC(=O)C1C(=O)C=CN([C@H](C)c2ccccc2)[C@@H]1Cc1ccc(OC)c(OCc2ccccc2)c1I (some centres not stated) ; its GI50 = 13.6 µM (inactive)

Measured GI50 of `O=C(Cc1nc2ccccc2s1)Nc1ccc(Cl)cc1` : > 100 µM (inactive)

Lookup result for N#CC12C(=O)NC(=O)C1(C#N)C1C=CC2CC1 (configuration not stated) ; measured GI50: > 100 µM (inactive)

`CCCCOC(=O)CNC(=O)OCCCCC#CC#CCCCCOC(=O)NCC(=O)OCCCC` has a reported GI50 of 76.7 µM (inactive)

Short answer for `Cc1ccc(/C=C/C(=O)c2sc(-c3nc(C)c(C(=O)/C=C/c4ccc(C)cc4)s3)nc2C)cc1` : GI50 was 97.5 µM (inactive)

The reported value for `COC(=O)CN1CCN(c2cccc3c2CCCC3)CC1` in terms of GI50 is 67.6 µM (inactive)

Kindly note the recorded GI50 for N#CC(/N=N/c1ccccc1C(=O)O)C(N)=O (configuration not stated) , which is > 100 µM (inactive)

According to the records, this compound `Brc1c(C#CCC(c2ccccc2)(c2ccccc2)c2ccccc2)ccc(C#CCC(c2ccccc2)(c2ccccc2)c2ccccc2)c1Br` displays GI50 of > 100 µM (inactive)

For this compound ( COC(=O)CNC(=O)C(C)NC(=O)C(CC(=O)OCc1ccccc1)NC(=O)OCc1ccccc1 (stereo not drawn) (Cbz-Asp(OBn)-Ala-Gly-OMe; configuration not given here) ), measured GI50 is 34.3 µM (inactive)

Form field GI50, entry NC(=O)CCC(NC(=O)Cc1ccccc1)C(=O)O (configuration not stated) : 841 µM (inactive)

GI50 measured on COC1C2c3ccccc3C(C#N)(Cc3ccc4c(c32)OCO4)N1C(=O)c1ccccc1 (configuration not stated) = 10.5 µM (inactive)

Lookup result for `C/N=C(\N)N/N=C(\C)c1ccc2oc3ccc(/C(C)=N/N/C(N)=N/C)cc3c2c1` ; measured GI50: 1.67 µM (inactive)

The reported value for O=C1CCC2(c3ccc(Cl)cc3)Nc3ncccc3N12 (configuration not stated) in terms of GI50 is > 100 µM (inactive)

Sure, the documented GI50 for CCOC(=O)/C(O)=C1\C(=O)N(C)C(=O)C1c1ccc(OC)c(OC)c1 (configuration not stated) is > 100 µM (inactive)

The reported value for `COc1ccc(C(=O)/C=C/c2ccc3c(c2)OCO3)c(OCc2ccccc2)c1` in terms of GI50 is 9.68 µM (inactive)

So, `O=C1C(c2ccc(Cl)cc2)=[N+]([O-])c2ccccc21` ? Its GI50 was 10 µM (inactive)

The value of GI50 measured for the compound `N=C(N)N/N=C(/c1ccccc1)c1ccc(O)cc1O` turned out to be 15.3 µM (inactive)

Entry under test: `CN(C)Cc1cc(O)c(O)c(CN(C)C)c1` . Its GI50 was 30.3 µM (inactive)

// GI50 value for `FC(F)(Sc1ccccn1)c1nc2ccccc2o1` : > 100 µM (inactive)

What the record says about `Cc1ccccc1Nc1cn(CCOc2ccccc2)c(=O)n(CCOc2ccccc2)c1=O` : GI50 is 12.5 µM (inactive)

Recorded result, `Oc1cccc(Nc2cc(O)nc(O)n2)c1` , GI50: > 100 µM (inactive)

The reported value for `O=C(Nc1cccc(Cl)c1)Nn1cnnc1` in terms of GI50 is > 100 µM (inactive)
